Source listed as the supplement of paper PMC10567573.

What protein stability index was measured for each of the following?
B1: ZBED2 (parent)
chain: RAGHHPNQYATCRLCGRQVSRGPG

- Variants of: B1
- assayRemarks: protein stability index of a GFP-peptide fusion (GPS, HEK-293T) (PSI 1-6); higher = more stable;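 note: lentivirally expressed fusions sorted by FACS into six bins by GFP to DsRed ratio, PSI derived from sequencing read proportions per bin multiplied by bin number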
- protocolConditions: c terminus: a fixed tail appended
Respond using a number only.

Requested read-out: protein stability index. Entry: RAGHHYNQYATCRLCGRQVSRGPG [P6Y] 1.02

Thanks! And RAGHHPNQYHTCRLCGRQVSRGPG [A10H] ? 2.02

Next entry: RAGHHPNQYATCRLCGRQVSRGIG [P23I] 2.27

Next entry: RAGHHPNQYATCRLVGRQVSRGPG [C15V] 2.2

Next up: RAGHHPNQYATCRLCGRQVGRGPG [S20G] 1.78

Note, next up: RAGHHPNQYATCRLCGHQVSRGPG [R17H] 1.29

Thanks! And RAGHHPNQYATCRLHGRQVSRGPG [C15H] ? 1.93

Next entry: RAGHHPNQYATMRLCGRQVSRGPG [C12M] 2.28

Queued: RAGHHPNQYATCRLCGRQVSRGHG [P23H] 2.54

And then RAGHHPNQYNTCRLCGRQVSRGPG [A10N] , what is it? 1.64

Field entry: RAGHHPNQYATCRLNGRQVSRGPG [C15N] 2.19

Now give it for RHGHHPNQYATCRLCGRQVSRGPG [A2H] too. 1.78

Please give the result for RAGHHPNQYATCRLCGRQFSRGPG [V19F] too. 2.08

Next entry: RAGHHPNQYARCRLCGRQVSRGPG [T11R] 2.01

Next variant: RAGHHPNQYITCRLCGRQVSRGPG [A10I] 1.43

Likewise for RAKHHPNQYATCRLCGRQVSRGPG [G3K] ? 2.66

Lookup IAGHHPNQYATCRLCGRQVSRGPG [R1I] 2.13

Next variant up: RGGHHPNQYATCRLCGRQVSRGPG [A2G] 2.1

Can you check RAGHHPNQYATARLCGRQVSRGPG [C12A] next? 3.19

Next record, please: RAGHHPNQYATCRLCGRQVSRWPG [G22W] 1.46
